Sourced from patent US9499502B2

- experimental_system: UniProt Q9Y5Z0
- Sequence (Q9Y5Z0 63-473): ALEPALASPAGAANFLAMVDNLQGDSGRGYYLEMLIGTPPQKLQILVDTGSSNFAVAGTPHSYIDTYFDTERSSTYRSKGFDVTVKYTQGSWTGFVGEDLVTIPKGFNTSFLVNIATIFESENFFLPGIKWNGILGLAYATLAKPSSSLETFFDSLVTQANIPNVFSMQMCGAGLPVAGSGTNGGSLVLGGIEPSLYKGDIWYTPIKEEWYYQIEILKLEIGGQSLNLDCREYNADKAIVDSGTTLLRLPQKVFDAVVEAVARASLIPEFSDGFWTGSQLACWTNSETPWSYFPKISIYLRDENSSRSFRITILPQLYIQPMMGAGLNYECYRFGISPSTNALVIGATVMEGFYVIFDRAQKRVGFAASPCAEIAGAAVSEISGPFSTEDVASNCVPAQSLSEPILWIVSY
- assay_protocol: BACE-2 Assay (BACE-HTRF assay)
- Assay type: biochemical
- recorded_conditions: Ki calculated from IC50 using the Cheng-Prusoff equation; read-out: BACE2 Ki
Below, each entry is listed with its recorded Ki.
Report the value in nM with no unit label.

Find the measured Ki of C[C@]1(CC(F)(F)F)C(=N)N[C@](C)(c2sc(-c3cccc(C#N)c3)cc2F)CS1(=O)=O [Example 27bj-a] and report it.
7

====

- experimental_system: soluble human BACE1 catalytic domain (Homo sapiens (Human), UniProt P56817)
- Sequence (P56817 75-416): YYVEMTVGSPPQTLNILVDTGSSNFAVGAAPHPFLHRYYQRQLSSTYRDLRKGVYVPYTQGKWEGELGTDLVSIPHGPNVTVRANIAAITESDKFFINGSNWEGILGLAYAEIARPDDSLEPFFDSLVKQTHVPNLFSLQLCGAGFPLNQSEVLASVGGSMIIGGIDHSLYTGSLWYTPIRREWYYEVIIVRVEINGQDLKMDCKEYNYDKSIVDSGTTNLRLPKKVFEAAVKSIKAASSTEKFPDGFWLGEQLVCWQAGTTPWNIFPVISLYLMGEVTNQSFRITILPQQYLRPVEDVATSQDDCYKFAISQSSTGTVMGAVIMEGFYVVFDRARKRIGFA
- assay_protocol: BACE1 HTRF FRET Assay
- recorded_conditions: BACE1 Ki (nM), Ki calculated from IC50 using the Cheng-Prusoff equation
In this section we review reported Ki values for a set of molecules.

molecule	Ki
CC1(C)C(=N)N[C@](C)(c2cc(NC(=O)c3ncc(F)cc3F)ccc2F)CS1(=O)=O [Example 2]	< 5 nM

Field: next molecule
Name the recorded Ki of the molecule listed here: CC1(C)C(=N)N[C@](C)(c2cc(NC(=O)c3ccc(F)cn3)ccc2F)CS1(=O)=O [Example 1]
< 5 nM

====

- experimental_system: soluble human BACE1 catalytic domain (Homo sapiens (Human))
- assay_protocol: BACE1 HTRF FRET Assay
- recorded_conditions: read-out: BACE1 Ki; Ki calculated from IC50 using the Cheng-Prusoff equation
Mark true for Ki under 80 nM, false if at or over.

molecule	qualitative_label
CC1(C(=O)Nc2ccc(F)c([C@]3(C)CS(=O)(=O)C(C)(C)C(=N)N3)c2)COC1	false
CC1(C)C(=N)N[C@](C)(c2sc(C(=O)NCC3CCC3)cc2Cl)CS1(=O)=O [Example 22n]	false
CC1(C)C(=N)N[C@](C)(c2sc(C(=O)NCc3ccc(C(F)(F)F)cn3)cc2Cl)CS1(=O)=O [Example 22p]	false

Is the reported Ki for `CC1(C)C(=N)N[C@](C)(c2cc(NC(=O)C3CCOCC3)ccc2F)CS1(=O)=O` strictly below 80 nM?
false

Bench note: check whether `CC1(C)C(=N)N[C@](C)(c2nc(NC(=O)c3ccc(C(F)(F)F)cn3)ccc2F)CS1(=O)=O` shows Ki below 80 nM
true

Please check: Ki for `COc1cnc(C(=O)Nc2ccc(F)c([C@]3(C)CS(=O)(=O)[C@@](C)(C4CCC4)C(=N)N3)c2)cn1` , strictly under 80 nM or not?
true

Find out if reported Ki for `CC1(C)C(=N)N[C@](C)(c2cc(NC(=O)c3ncc(F)cc3F)ccc2F)CS1(=O)=O` is less than 80 nM
true

Consider `CC1(C)C(=N)N[C@](C)(c2cc(NC(=O)Cc3ncccn3)cc(F)c2F)CS1(=O)=O` . Does its Ki lie strictly below 80 nM?
false

Hello, I'm reviewing records and need to know if Ki of `CC1(C)C(=N)N[C@](C)(c2cc(NC(=N)c3ncc(F)cc3F)ccc2F)CS1(=O)=O` is below 80 nM. Could you check?
false

Hello, I'm reviewing records and need to know if Ki of `CC1(C)C(=N)N[C@](C)(c2cc(NC(=O)CC(F)(F)F)ccc2F)CS1(=O)=O` is below 80 nM. Could you check?
false

Ki under 80 nM? Item: `COc1ccc(C(=O)Nc2ccc(F)c([C@]3(C)CS(=O)(=O)[C@@](C)(C(C)C)C(=N)N3)c2)nc1`
true

For CC1(C)C(=N)N[C@](C)(c2sc(C(=O)NCc3ncc(F)cc3Cl)cc2Cl)CS1(=O)=O [Example 22o] , is the recorded Ki below the cut-off of 80 nM?
false

Please let me know if CC1(C)C(=N)N[C@](C)(c2sc(-c3cncc(-c4cnco4)c3)cc2Cl)CS1(=O)=O [Example 27ac] shows Ki below 80 nM.
true

Please check: Ki for `Cc1ccc(C(=O)Nc2cc(F)c(F)c([C@]3(C)CS(=O)(=O)C(C)(C)C(=N)N3)c2)nc1` , strictly under 80 nM or not?
true

Bench note: check whether `Cc1noc(C(=O)Nc2ccc(F)c([C@]3(C)CS(=O)(=O)C(C)(C)C(=N)N3)c2)n1` shows Ki below 80 nM
true

Dear reviewer, please state whether CCC1C(=N)N[C@](C)(c2cc(NC(=O)c3ccc(F)cn3)ccc2F)CS1(=O)=O (stereo partly drawn) has Ki strictly beneath 80 nM.
true

Ki under 80 nM? Item: CC1(C)C(=N)N[C@](C)(c2nc(-c3cccc(C#N)c3)ccc2F)CS1(=O)=O [Example 16b]
false

Problem: For the molecule `COc1ccc(C(=O)Nc2cc(F)c(F)c([C@]3(C)CS(=O)(=O)C(C)(C)C(=N)N3)c2)nc1` , is Ki under 80 nM?
true

Determine whether this molecule shows Ki lower than 80 nM (ties excluded): `CC1(C)C(=N)N[C@](C)(c2sc(C(=O)Nc3cccc(Cl)n3)cc2Cl)CS1(=O)=O`
true

Hello, is Ki of the following molecule strictly smaller than 80 nM? `COc1cnc(C(=O)Nc2ccc(F)c([C@]3(C)CS(=O)(=O)[C@@](C)(CC4CC4)C(=N)N3)c2)cn1`
true
